These entries and their values trace back to patent US20230220053A1.

- system.under.test: S1-Fc (SARS-CoV-2 S1 protein, Fc fusion) (SARS-CoV-2, UniProt P0DTC2 16-685)
- protocol.summary: SPR (Biacore T200), S1 captured on anti-human Fc chip, scFv injected
recorded.endpoint: koff (s⁻¹)
Please give a number only; it is taken to be in s⁻¹.

# binder, recorded.endpoint, unit.spec, measurement
records = [
    ("2020EP54-E10 scFv (scFv, also called 2020EP054-E10) scFv: QVQLVQSGAEVRKPGSSVKVSCKASGGTFSSFAISWVRQAPGQGLEWMGGIIPIFDTATYAQNFQGRVRMTADESTNTAYMELSSLTSEDTAVYYCARSTSYYDSRGDYKVGDFDYWGQGTLVTVSSGGGGSGGGGSGGGGSAIRMTQSPSSLSASVGDRVTITCQASQDISNYLNWYQQKPGKAPKLLIYDASNLETGVPSRFSGSGSGTDFTFTISSLQPEDIATYYCQQYDNLPLTFGGGTKVEIK", "koff", "s⁻¹", 0.00106),
    ("2020EP64-C08 scFv (scFv) scFv: QMQLVQSGAEVKKPGSSVKVSCKASGGTFSSYAISWVRQAPRQGLEWMGRIIPILGIANYAQKFQGRVTITADKSTSTAYMELSSLRSEDTAVYYCASSYGGNQLWGQGTLVTVSSGGGGSGGGGSGGGGSQSVLTQPPSASGTPGQRVTISCSGSDSNIGTNTVNWYQQVPGTAPKVLIYSTHQRPSGVPDRFSASKSGTSASLAISGLQSEDEADYYCSSWDVSLNAWVFGGGTKVTVL", "koff", "s⁻¹", 0.00693),
    ("2020EP54-B02 scFv (scFv) scFv: QVQLVQSGAEVKKPGASVKVSCKASGYTFIGYYMHWMRQAPGQGLEWMGRINPNSGGTNYAEKFQGRVTMTRDTSISTAYMELSRLTFNDTAVYYCARWDSSSWKFDSWGQGTLVTVSSGGGGSGGGGSGGGGSEIVLTQSPSSLSASVGDRVTITCQASQDISNYLNWYQQKPGKAPKLLIYDASNLETGVPSRFSGSGSGTDFTFTISSLQPEDIATYYCQQYDNLPITFGQGTRLEIK", "koff", "s⁻¹", 0.00366),
    ("2020EP66-D03 scFv (scFv) scFv: QVQLQQWGAGLLKPSETLSLTCAVYGGSFSGYYWSWIRQPPGKGLEWIGEINHSGSTNYNPSLKSRVTISVDTSKNQFSLKLSSVTAADTAVYYCARGPPLWNYGKGFDYWGQGTLVTVSSGGGGSGKGGSGGGGSQPVLTQPPSASGTPGQRVTISCSGSSSNIGSNYVYWYQQLPRTAPKLLIYRNNQRPSGVPDRFSGSKSGTSASLAISGLRSEDEADYYCAAWDDSLSAWVFGGGTKLTVL", "koff", "s⁻¹", 0.00256),
    ("2020EP54-E12 scFv (scFv, also called 2020EP054-E12) scFv: EVQLVESGGGLVQPGGSLRLSCAVTGFIVSSNYMNWVRQAPGKGLEWVSVIYSGGTTYYADSVKGRFTISRDKSKNTLYLQMNNLRAEDTAMYYCATLGNDYGDYGTDYWGQGTLVTVSSGGGGSGGGGSGGGGSQLVLTQPPSVSVSPGQTASISCSGDRLGQKYTSWYQQRPGQSPVLIMYQDNKRPSGIPERFSGSNSGNTATLTISGIQSMDEADYYCQVWDSGSDHAVFGGGTQLTVL", "koff", "s⁻¹", 0.000687),
]

INPUT: Fill in: koff of 2020EP75-E02 scFv (scFv) scFv: QMQLVQSGAEVKKPGSSVKVSCKASGGTFSSYAISWVRQAPGQGLEWMGGIIPIFGTANYAQKFQGRVTITADKSTSTAYMELSSLRSEDTAVYYCARPRDYRAQYYFDYWGQGTLVTVSSGGGGSGGGGSGGGGSDIVMTQSPSSLSASVGDRVTITCRAGQDIDTSVNWYQLKPGKAPRLLIYASSSLQTGVPSRFSGGGSGAEFTLTISSLQPEDFATYFCQQTFSTSVTFGGGTKVEIK is ___
OUTPUT: 0.00174

INPUT: Fill in: koff of 2020EP64-G10 scFv (scFv) scFv: QVQLVQSGGGVVQPGRSLRLSCAASGFTFSSYAMHWVRQAPGKGLEWVAVISYDGSNKYYADSVKGRFTISRDNSKNTLYLQMNSLRAEDTAVYYCARDGEDGYNYISPFDYWGQGTLVTVSSGGGGSGGGGSGGGRSSYELTQPPSVSVAPGETARITCRGNDIGSKSVHWYQQKPGQAPVLVLYYDSDRPSGIPERFSGSNSGNTATLTISSVEAGDEADYYCHVWDIDVVFGGGTKLTVL is ___
OUTPUT: 0.00242

INPUT: Fill in: koff of 2020EP53-D06 scFv (scFv) scFv: QVQLVQSGGGVVQPGRSLRLSCAASGFTFSSYAMHWVRQAPGKGLEWVAVISYDGSNKYYADSVKGRFTISRDNSKNTLYLQMNSLRAEDTAVYYCARDGEDGYNYISPFDYWGQGTLVTVSSGGGGSGGGGSGGGGSSYELTQPPSVSVAPGETARITCRGNDIGSKSVHWYQQKPGQAPVLVLYYDSDRPSGIPERFSGSNSGNTATLTISSVEAGDEADYYCQVWDIDVVFGGGTKLTVL is ___
OUTPUT: 0.00204
